# Tested on: HCT-116
# MEASUREMENT DESCRIPTION: Cytotoxicity against human HCT116 cells assessed as growth inhibition after 72 hrs by MTT assay
# Type: functional, cell-based
# CONDITION: HCT-116, 72 h
I'd appreciate it if you could supply IC50 values for the items below.
Note: unit µM is implicit; provide only the numeric part.

Give reported IC50 value for COc1cc(/C=C/C(=O)CC(=O)/C=C/c2ccc(O)c(OC)c2)ccc1O [CURCUMIN] 41.5

Tell me IC50 reported for CN(C)Cc1cc(/C=C2\CCC/C(=C\c3cc(CN(C)C)c(O)c(CN(C)C)c3)C2=O)ccc1O 64.7

Specify IC50 for COc1cc(/C=C2\CC/C(=C\c3cc(CN(C)C)c(O)c(OC)c3)C2=O)cc(CN(C)C)c1O and stop. 24.4

Please list IC50 recorded for the compound COc1cc(/C=C/C(=O)CC(=O)/C=C/c2ccc(O)c(CN(C)C)c2)ccc1O 3.7

Specify IC50 for CN(C)Cc1cc(/C=C2\CC/C(=C\c3ccc(O)c(CN(C)C)c3)C2=O)ccc1O and stop. 142

Provide IC50 value for the following compound: COc1cc(/C=C2\CCC/C(=C\c3cc(CN(C)C)c(O)c(OC)c3)C2=O)cc(CN(C)C)c1O 65.9
